biological target: GTP-KRAS-G12D:CRAF (Homo sapiens (Human), UniProt P01116, G12D); assay: GTP-KRAS-G12D:CRAF binding inhibition
Sequence (P01116-2 other isoform, or with tags, fused parts or gaps G12D): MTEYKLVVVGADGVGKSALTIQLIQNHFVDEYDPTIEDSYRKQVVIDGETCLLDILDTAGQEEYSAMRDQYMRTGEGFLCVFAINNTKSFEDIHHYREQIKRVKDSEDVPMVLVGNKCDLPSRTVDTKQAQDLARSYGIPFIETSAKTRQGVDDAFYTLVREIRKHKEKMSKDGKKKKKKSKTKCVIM
Counter-ions that a name gives are not always drawn.
measuredAttribute: log10 of IC50 (log10 of the value in nM)
Note: values are log10 of IC50 expressed in nM.

Please review the following examples before continuing.
[[record]]
compound = "Oc1cc(Cl)c2c(c1)C1(CC2)CCc2c(N3CC4CCC(C3)N4)nc(OC[C@@]34CCCN3C[C@H](F)C4)nc2C1(F)F (single isomer, unassigned) [Compound 9a, dihydrochloride]"
assayresult = 1.67

[[record]]
compound = "Oc1cc(Cl)c2c(c1)C1(CC2)CCc2c(nc(OC[C@@]34CCCN3C[C@H](F)C4)nc2N2CC3CCC(C2)N3)C1 (single isomer, unassigned) [Compound 2a, dihydrochloride]"
assayresult = 1.51


// F[C@H]1CN2CCC[C@@]2(COc2nc3c(c(N4CC5CCC(C4)N5)n2)CCC2(CCc4c(Cl)cccc42)C3)C1 (single isomer, unassigned) : log10 of IC50 value = 2.52

// Oc1cc(Cl)c2c(c1)C1(CC2)CCc2c(nc(OC[C@@]34CCCN3C[C@H](F)C4)nc2N2CC3CCC(C2)N3)C1F (single isomer, unassigned) [Compound 8a, dihydrochloride] : log10 of IC50 value = 1.29

// Oc1cc(Cl)c2c(c1)C1(CC2)CCc2c(nc(OC[C@@]34CCCN3C[C@H](F)C4)nc2N2CC3CCC(C2)N3)C1F (single isomer, unassigned) [Compound 8d, dihydrochloride] : log10 of IC50 value = 2.69

// Oc1cc(-c2cc3c4c(nc(OC[C@@]56CCCN5C[C@H](F)C6)nc4c2F)N2C[C@@H]4CC[C@@H](N4)[C@H]2CO3)c2ccccc2c1 [Compound 3, dihydrochloride] : log10 of IC50 value = 1.09

// CCc1cccc2cc(O)cc(-c3c(F)c4c5c(nc(OC[C@@]67CCCN6C[C@H](F)C7)nc5c3F)N3CC5CCC(N5)C3CO4)c12 (single isomer, unassigned) [Compound 5a, dihydrochloride] : log10 of IC50 value = 0.76

// CC1CC2(CCc3c(nc(OC[C@@]45CCCN4C[C@H](F)C5)nc3N3CC4CCC(C3)N4)C2)c2cc(O)cc(Cl)c21 (single isomer, unassigned) [Compound 7a, dihydrochloride] : log10 of IC50 value = 1.38

Data credit: patent US20250197424A1
